- TEST TARGET: Delta-type opioid receptor (Homo sapiens, UniProt P41143)
- Sequence (P41143 whole entry): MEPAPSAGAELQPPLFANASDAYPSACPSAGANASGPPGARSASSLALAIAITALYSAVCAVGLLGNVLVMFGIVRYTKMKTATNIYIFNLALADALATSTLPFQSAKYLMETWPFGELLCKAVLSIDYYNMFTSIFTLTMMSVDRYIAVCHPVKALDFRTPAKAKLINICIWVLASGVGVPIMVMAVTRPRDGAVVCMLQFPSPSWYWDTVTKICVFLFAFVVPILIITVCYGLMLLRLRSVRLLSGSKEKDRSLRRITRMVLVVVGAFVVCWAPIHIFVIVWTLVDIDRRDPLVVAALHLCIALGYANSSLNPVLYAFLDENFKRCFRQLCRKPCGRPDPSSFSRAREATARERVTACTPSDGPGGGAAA
- TEST DETAILS: Agonist activity at human DOR expressed in HEK293 cell membrane assessed as inhibition of forskolin-induced cAMP accumulation by liquid scintillation counting relative to control
- Assay type: functional, cell membranes
Where a SMILES comes first, the peptide text is derived from it. [ ]: non-standard residue; d: D form. dNMeA = CN[C@H](C)C(=O)O; Sar = CNCC(=O)O
Note to self: Emax under 70% means Yes, ties and anything higher get No.

# count of solved cases: 3
C[C@H](C(=O)N[C@H]1Cc2ccccc2CN(CC(N)=O)C1=O)N1Cc2cc(O)ccc2C[C@H](N)C1=O | No
Cc1cc(O)cc(C)c1C[C@H](N)C(=O)N[C@H](C)C(=O)N[C@H]1Cc2ccccc2CN(CC(N)=O)C1=O | Yes
C[C@H](C(=O)N[C@@H](Cc1ccccc1)C(=O)N(C)CC(N)=O)N(C)C(=O)[C@@H](N)Cc1ccc(O)cc1 (H-Y[dNMeA]F[Sar]-NH2) | No

Now for another entry.
Decide: Emax of Cc1cc(O)cc(C)c1C[C@H](N)C(=O)N(C)[C@H](C)C(=O)N[C@H]1Cc2ccccc2CN(CC(N)=O)C1=O strictly below 70%?
Yes

====

Mu-type opioid receptor (Rattus norvegicus, UniProt P33535) measurements of pIC50, listed per entry.
Sequence (P33535 whole entry): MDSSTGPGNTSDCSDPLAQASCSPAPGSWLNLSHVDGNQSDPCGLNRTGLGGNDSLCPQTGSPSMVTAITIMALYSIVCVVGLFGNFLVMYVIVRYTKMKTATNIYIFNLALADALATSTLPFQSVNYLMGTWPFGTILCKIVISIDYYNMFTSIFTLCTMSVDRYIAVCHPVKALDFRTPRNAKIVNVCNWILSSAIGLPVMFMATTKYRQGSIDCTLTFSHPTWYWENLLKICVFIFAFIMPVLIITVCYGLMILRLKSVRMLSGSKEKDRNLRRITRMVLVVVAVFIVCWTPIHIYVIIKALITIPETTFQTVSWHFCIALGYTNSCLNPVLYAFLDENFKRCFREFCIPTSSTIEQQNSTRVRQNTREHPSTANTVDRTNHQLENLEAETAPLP
Where a SMILES comes first, the peptide text is derived from it. [ ]: non-standard residue; d: D form. Dmt = Cc1cc(O)cc(C)c1C[C@H](N)C(=O)O; dNMeA = CN[C@H](C)C(=O)O; Sar = CNCC(=O)O
Bear in mind: pIC50 is minus log10 of a mol/L concentration; give just that figure.

Cc1cc(O)cc(C)c1C[C@H](N)C(=O)N(C)[C@H](C)C(=O)N[C@@H](Cc1ccccc1)C(=O)N(C)CC(N)=O (H-[Dmt][dNMeA]F[Sar]-NH2) | 9.52
C[C@H](C(=O)N[C@H]1Cc2ccccc2CN(CC(N)=O)C1=O)N1Cc2cc(O)ccc2C[C@H](N)C1=O | 7.68
Cc1cc(O)cc(C)c1C[C@H](N)C(=O)N(C)[C@H](C)C(=O)N[C@H]1Cc2ccccc2CN(CC(N)=O)C1=O | 9.02

Observed pIC50 on Mu-type opioid receptor (Rattus norvegicus, UniProt P33535) for C[C@H](C(=O)N[C@@H](Cc1ccccc1)C(=O)N(C)CC(N)=O)N(C)C(=O)[C@@H](N)Cc1ccc(O)cc1 (H-Y[dNMeA]F[Sar]-NH2) , please.
7.55

====

- TEST TARGET: Opioid receptors; mu and delta (Mus musculus, UniProt P42866+P32300)
- TEST DETAILS: Agonist activity at MOR/DOR in NMRI mouse spinal cord assessed as reduction in spinal cord network activity by electrophysiology assay
- Assay type: functional
Where a SMILES comes first, the peptide text is derived from it. [ ]: non-standard residue; d: D form. dNMeA = CN[C@H](C)C(=O)O; Sar = CNCC(=O)O
OBSERVABLE: EC50 (nM)
Write down the numeric answer in nM and omit the unit.

Solved entries (count: 2):
Cc1cc(O)cc(C)c1C[C@H](N)C(=O)N(C)[C@H](C)C(=O)N[C@H]1Cc2ccccc2CN(CC(N)=O)C1=O | 1.3
C[C@H](C(=O)N[C@@H](Cc1ccccc1)C(=O)N(C)CC(N)=O)N(C)C(=O)[C@@H](N)Cc1ccc(O)cc1 (H-Y[dNMeA]F[Sar]-NH2) | 1060

Attention now turns to another entry.
GET /values?readout=EC50&item= C[C@H](C(=O)N[C@H]1Cc2ccccc2CN(CC(N)=O)C1=O)N1Cc2cc(O)ccc2C[C@H](N)C1=O
6.7

====

- TEST TARGET: Mu-type opioid receptor (Homo sapiens, UniProt P35372)
- Sequence (P35372 whole entry): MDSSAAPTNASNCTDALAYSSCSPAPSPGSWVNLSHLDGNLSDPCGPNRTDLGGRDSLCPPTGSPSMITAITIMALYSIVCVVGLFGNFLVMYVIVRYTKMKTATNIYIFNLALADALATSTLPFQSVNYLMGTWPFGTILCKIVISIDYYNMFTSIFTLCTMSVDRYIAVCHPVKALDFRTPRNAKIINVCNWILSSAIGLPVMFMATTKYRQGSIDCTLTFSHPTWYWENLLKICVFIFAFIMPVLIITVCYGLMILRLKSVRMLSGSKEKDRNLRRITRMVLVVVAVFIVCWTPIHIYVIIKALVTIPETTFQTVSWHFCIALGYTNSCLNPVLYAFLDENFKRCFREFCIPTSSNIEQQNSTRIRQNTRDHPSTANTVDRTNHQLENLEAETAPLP
- TEST DETAILS: Agonist activity at human MOR expressed in HEK293 cell membrane assessed as inhibition of forskolin-induced cAMP accumulation by liquid scintillation counting relative to control
- Assay type: functional, cell membranes
Where a SMILES comes first, the peptide text is derived from it. [ ]: non-standard residue; d: D form. Dmt = Cc1cc(O)cc(C)c1C[C@H](N)C(=O)O; dNMeA = CN[C@H](C)C(=O)O; Sar = CNCC(=O)O
A collection of molecules and their measured Emax
# value in %; strip the unit string

Cc1cc(O)cc(C)c1C[C@H](N)C(=O)N(C)[C@H](C)C(=O)N[C@@H](Cc1ccccc1)C(=O)N(C)CC(N)=O (H-[Dmt][dNMeA]F[Sar]-NH2) | 71
C[C@H](C(=O)N[C@@H](Cc1ccccc1)C(=O)N(C)CC(N)=O)N(C)C(=O)[C@@H](N)Cc1ccc(O)cc1 (H-Y[dNMeA]F[Sar]-NH2) | 77

Request the reported Emax associated with Cc1cc(O)cc(C)c1C[C@H](N)C(=O)N[C@H](C)C(=O)N[C@H]1Cc2ccccc2CN(CC(N)=O)C1=O
78

Please give the measured Emax for this molecule: Cc1cc(O)cc(C)c1C[C@H](N)C(=O)N(C)[C@H](C)C(=O)N[C@H]1Cc2ccccc2CN(CC(N)=O)C1=O
72

Item under review: C[C@H](C(=O)N[C@H]1Cc2ccccc2CN(CC(N)=O)C1=O)N1Cc2cc(O)ccc2C[C@H](N)C1=O . Reported Emax?
78

====

- TEST TARGET: Mu-type opioid receptor (Homo sapiens, UniProt P35372)
pKi: −log10 of the molar value. Where a SMILES comes first, the peptide text is derived from it. [ ]: non-standard residue; d: D form. Dmt = Cc1cc(O)cc(C)c1C[C@H](N)C(=O)O; dNMeA = CN[C@H](C)C(=O)O; Sar = CNCC(=O)O
Mark rule met for reported pKi of 7 or greater; mark rule not met for anything smaller.

Solved entries (count: 4):
Cc1cc(O)cc(C)c1C[C@H](N)C(=O)N(C)[C@H](C)C(=O)N[C@@H](Cc1ccccc1)C(=O)N(C)CC(N)=O (H-[Dmt][dNMeA]F[Sar]-NH2) | rule met
C[C@H](C(=O)N[C@H]1Cc2ccccc2CN(CC(N)=O)C1=O)N1Cc2cc(O)ccc2C[C@H](N)C1=O | rule not met
C[C@H](C(=O)N[C@@H](Cc1ccccc1)C(=O)N(C)CC(N)=O)N(C)C(=O)[C@@H](N)Cc1ccc(O)cc1 (H-Y[dNMeA]F[Sar]-NH2) | rule not met
Cc1cc(O)cc(C)c1C[C@H](N)C(=O)N[C@H](C)C(=O)N[C@H]1Cc2ccccc2CN(CC(N)=O)C1=O | rule not met

Let's switch to this compound now.
Hi team, for Cc1cc(O)cc(C)c1C[C@H](N)C(=O)N(C)[C@H](C)C(=O)N[C@H]1Cc2ccccc2CN(CC(N)=O)C1=O , is the recorded pKi at or above 7?
rule met

====

- TEST TARGET: Delta-type opioid receptor (Homo sapiens, UniProt P41143)
- TEST DETAILS: Agonist activity at human DOR expressed in HEK293 cell membrane assessed as inhibition of forskolin-induced cAMP accumulation by liquid scintillation counting
Where a SMILES comes first, the peptide text is derived from it. [ ]: non-standard residue; d: D form. Dmt = Cc1cc(O)cc(C)c1C[C@H](N)C(=O)O; dNMeA = CN[C@H](C)C(=O)O; Sar = CNCC(=O)O
EC50 listing for selected compounds.
Quote the value and follow it with the unit of measurement.

Cc1cc(O)cc(C)c1C[C@H](N)C(=O)N(C)[C@H](C)C(=O)N[C@@H](Cc1ccccc1)C(=O)N(C)CC(N)=O (H-[Dmt][dNMeA]F[Sar]-NH2) | 4400 nM

Report EC50 for Cc1cc(O)cc(C)c1C[C@H](N)C(=O)N(C)[C@H](C)C(=O)N[C@H]1Cc2ccccc2CN(CC(N)=O)C1=O please.
0.016 nM

// returns reported EC50 for input Cc1cc(O)cc(C)c1C[C@H](N)C(=O)N[C@H](C)C(=O)N[C@H]1Cc2ccccc2CN(CC(N)=O)C1=O
0.17 nM

Consider the compound shown here: C[C@H](C(=O)N[C@@H](Cc1ccccc1)C(=O)N(C)CC(N)=O)N(C)C(=O)[C@@H](N)Cc1ccc(O)cc1 (H-Y[dNMeA]F[Sar]-NH2) What is its recorded EC50?
960 nM

====

Listed next: entries and their corresponding pKi.
- TEST TARGET: Delta-type opioid receptor (Homo sapiens, UniProt P41143)
- TEST DETAILS: Displacement of [3H]diprenorphine from human DOR expressed in HEK293 cell membrane by liquid scintillation counting
Where a SMILES comes first, the peptide text is derived from it. [ ]: non-standard residue; d: D form. Dmt = Cc1cc(O)cc(C)c1C[C@H](N)C(=O)O; dNMeA = CN[C@H](C)C(=O)O; Sar = CNCC(=O)O
Field pKi (float): negative decimal logarithm of the concentration in molar.

Solved entries (count: 3):
Cc1cc(O)cc(C)c1C[C@H](N)C(=O)N(C)[C@H](C)C(=O)N[C@@H](Cc1ccccc1)C(=O)N(C)CC(N)=O (H-[Dmt][dNMeA]F[Sar]-NH2) | 6.89
Cc1cc(O)cc(C)c1C[C@H](N)C(=O)N[C@H](C)C(=O)N[C@H]1Cc2ccccc2CN(CC(N)=O)C1=O | 7.74
Cc1cc(O)cc(C)c1C[C@H](N)C(=O)N(C)[C@H](C)C(=O)N[C@H]1Cc2ccccc2CN(CC(N)=O)C1=O | 8.30

Moving on to the next compound.
Item C[C@H](C(=O)N[C@H]1Cc2ccccc2CN(CC(N)=O)C1=O)N1Cc2cc(O)ccc2C[C@H](N)C1=O has what recorded pKi?
6.80
